Attribute: one-hybrid fitness for binding NBS DNA
B1: Caulobacter ParB omega fusion; a variant is named by its letters at X, in order, B8GW30 (parent)
chain: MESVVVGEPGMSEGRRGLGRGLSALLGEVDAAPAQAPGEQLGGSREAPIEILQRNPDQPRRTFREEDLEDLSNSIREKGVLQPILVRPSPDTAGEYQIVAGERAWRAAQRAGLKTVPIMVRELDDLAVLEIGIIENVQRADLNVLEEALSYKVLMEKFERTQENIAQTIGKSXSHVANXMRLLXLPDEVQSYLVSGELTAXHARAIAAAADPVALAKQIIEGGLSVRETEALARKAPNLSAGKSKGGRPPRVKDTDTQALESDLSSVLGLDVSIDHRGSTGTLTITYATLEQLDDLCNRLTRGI

Variants of: B1
Assay: one-hybrid fitness for binding NBS DNA (the Noc-binding site; scaled: cognate 1, non-cognate 0); higher = stronger binding
Settings: with NBS DNA site
In all, about 81,000 sequences were measured (“one-hybrid fitness for binding NBS DNA”: median about -0.1, highest 2% from about 0.36 on). The full list was thinned out, with the highest values kept by preference.

Use these answered entries as a reference point.
| mutation-id | val |
| --- | --- |
| RIHD | ≤ 0.2 |
| NMRT | ≤ 0.2 |
| RVTP | ≤ 0.2 |
| RKCR | 0.552 |

## Input Report one-hybrid fitness for binding NBS DNA for QCCM please.
## Output ≤ 0.2

Data origin, for the record: a collection of fitness landscapes (doi:10.1016/j.celrep.2020.107928)
